Source of measurements: the supplement of paper PMC12350171

Test system: Shigella flexneri
Assay: growth AUC normalised to DMSO control (fraction of control); higher = less growth inhibition, active = hit call of the paper
Settings: 20 µM
Where a name gives a salt, the structure may show the parent alone.
experimental_endpoint: growth AUC normalised to DMSO control
Form field (numeric): enter value without unit.

Which value of growth AUC normalised to DMSO control has been reported for OC(c1ccccc1)(c1ccccc1)C1CCNCC1 [Azacyclonol] in the records?
0.988

Give the measured growth AUC normalised to DMSO control of C[C@]12CC[C@H]3[C@@H](CCC4=CC(=O)CC[C@@H]43)[C@@H]1CC[C@@H]2O [Nandrolone] .
0.981

I am curious: what growth AUC normalised to DMSO control value has been reported for C[C@@H]1CC[C@H]2[C@@H](C)C(=O)O[C@@H]3O[C@@]4(C)CC[C@@H]1[C@]32OO4 [Artemisinin] ?
1.01

Need growth AUC normalised to DMSO control, item Oc1cc(Cl)ccc1Oc1ccc(Cl)cc1Cl [Triclosan]
0.0073

growth AUC normalised to DMSO control lookup needed for CN1CCC2(C)c3cc(O)ccc3N(C)C12 (single isomer, unassigned; (-)) [(-) Eseroline fumarate salt] , thanks.
1.01

Recorded growth AUC normalised to DMSO control of CN1[C@@H]2CC[C@H]1C[C@@H](OC1c3ccccc3CCc3ccccc31)C2 [Deptropine citrate] , please.
0.971

Which growth AUC normalised to DMSO control reading was recorded for the compound CC(=O)OC1CN2CCC1CC2 (stereo not drawn) [Aceclidine hydrochloride] ?
1.01

What value of measured growth AUC normalised to DMSO control is listed for C[N+]1(C)CCOC(O)(c2ccc(-c3ccc(C4(O)C[N+](C)(C)CCO4)cc3)cc2)C1 (stereo not drawn) [Hemicholinium bromide] ?
1.03

---

Tested on: Haemophilus parainfluenzae
Assay: growth AUC normalised to DMSO control (fraction of control); higher = less growth inhibition, active = hit call of the paper
Conditions: 20 µM
Counter-ions that a name gives are not always drawn.
experimental_endpoint: growth AUC normalised to DMSO control
The answer should be a number; do not append a unit.

I'd like to know its growth AUC normalised to DMSO control. The compound in question is CC1=C(C(=O)O)N2C(=O)[C@@H](NC(=O)[C@H](N)c3ccc(O)cc3)[C@H]2SC1 [Cefadroxil]
0.949

Requested field: growth AUC normalised to DMSO control. Item: CCCCCCCCCCCCCCCC[N+](C)(C)CCN(Cc1ccc(OC)cc1)c1ncccn1 [Thonzonium bromide]
0.978

Which growth AUC normalised to DMSO control value is on record for NNCCc1ccccc1 [Phenelzine sulfate] ?
1.02

Which measured growth AUC normalised to DMSO control value corresponds to CCOC(=O)c1ccc(OC(=O)CCCCCNC(=N)N)cc1 [Gabexate mesilate] ?
0.919

Give the measured growth AUC normalised to DMSO control of O=C1CC2(CCCC2)CC(=O)N1CCCCN1CCN(c2ncccn2)CC1 [Buspirone hydrochloride] .
1.09

growth AUC normalised to DMSO control lookup needed for Cc1cccc(Nc2ccncc2S(=O)(=O)NC(=O)NC(C)C)c1 [Torsemide] , thanks.
0.978

If you can, please state the reported growth AUC normalised to DMSO control value of COc1ccc2cc(CCC(C)=O)ccc2c1 [Nabumetone] .
0.997

Tell me the measured growth AUC normalised to DMSO control of C[C@]12CC[C@H](O)C[C@H]1CC[C@@H]1[C@@H]2C[C@@H](O)[C@]2(C)[C@@H](C3=CC(=O)OC3)CC[C@]12O [Digoxigenin] , please.
1.01

# query: growth AUC normalised to DMSO control of entry CCOC(=O)[C@H](CCc1ccccc1)N[C@@H](C)C(=O)N1CCC[C@H]1C(=O)O [Enalapril maleate]
1.03

Request the reported growth AUC normalised to DMSO control associated with CCOC(=O)[C@H](CCc1ccccc1)N[C@H]1CCc2ccccc2N(CC(=O)O)C1=O [Benazepril hydrochloride]
0.995

Which growth AUC normalised to DMSO control value belongs to CNC1(C)C2CCC(C2)C1(C)C (stereo unspecified) [Mecamylamine hydrochloride] ?
0.988

I would be grateful if you could share the reported growth AUC normalised to DMSO control for COC(=O)CCc1ccc(OCC(O)CNC(C)C)cc1 (stereo unspecified) [Esmolol hydrochloride] .
1.09

Looking for the measured growth AUC normalised to DMSO control of CCC(=O)OCC(=O)[C@@]1(OC(=O)CC)[C@@H](C)C[C@H]2[C@@H]3CCC4=CC(=O)C=C[C@]4(C)[C@@]3(Cl)[C@@H](O)C[C@@]21C [Beclomethasone dipropionate] , can you help?
0.969

Given COc1ccc2c3c1O[C@H]1C[C@@H](O)C=C[C@@]31CCN(C)C2 [Galanthamine hydrobromide] , state its recorded growth AUC normalised to DMSO control.
0.988

Return reported growth AUC normalised to DMSO control; argument: CCC(=O)OCC(=O)[C@@]1(OC(=O)CC)[C@H](C)C[C@H]2[C@H]3[C@H]([C@@H](O)C[C@@]21C)[C@@]1(C)C=CC(=O)C=C1C[C@H]3Cl [Alclometasone dipropionate]
1.02

Query (compound): Cc1cn[nH]c1 [Fomepizole] ; field requested: growth AUC normalised to DMSO control
0.954
